B1: F-tractinopt–mCherry fusion [rat] / F-actin (rabbit skeletal muscle α-actin filaments) [rabbit] (parent)
chain 1: APRRSVGELRLLFEARAASAA
chain 2: not shown

Variants of: B1
Test: high-speed cosedimentation assay (SDS-PAGE densitometry)
Settings: with F-actin (rabbit skeletal muscle α-actin filaments) [rabbit]; 2 µM F-tractin-mCherry; high-speed sedimentation, 120,000 g; actin 0-40 µM
experimental-readout: Kd

Problem: Any idea what Kd was measured for chain 1 F13A ?
Result: > 100 µM
